# Test system: MDA-MB-468
# ASSAY REMARKS: Cytotoxicity against human MDA-MB-468 cells assessed as inhibition of cell viability at 10 uM
# Type: functional
PROPERTY: inhibition at 10 µM
Give the number first and the unit second.

{"COMPOUND": "COCCNCc1ccc(OCc2cc(Cl)cc(Cl)c2)cc1", "inhibition at 10 µM": "16.4%"}
{"COMPOUND": "OCCNCc1cc(Br)ccc1OCc1ccc(Cl)cc1", "inhibition at 10 µM": "26.6%"}
{"COMPOUND": "C#CCOc1ccc(Cl)cc1CNc1ccccc1Cl", "inhibition at 10 µM": "15.5%"}
{"COMPOUND": "NC(=O)COc1ccc(Cl)cc1CNCc1ccc(F)cc1", "inhibition at 10 µM": "54.8%"}

Return reported inhibition at 10 µM; argument: O=C(O)c1ccc(CNCc2ccccc2OCc2ccccc2)cc1
-10.8%

Moving on to NC(=O)COc1ccc(Cl)cc1CNCCN1CCOCC1
-2.61%

Moving on to Oc1ccc(NCc2cc(Cl)ccc2OCc2ccc(Cl)cc2)cc1
46.8%

Moving on to Cc1cccc(NCc2cc(Br)ccc2OCc2ccc(Cl)cc2)c1C
-2.03%

* * *

# System: MDA-MB-468
# ASSAY REMARKS: Cytotoxicity against human MDA-MB-468 cells assessed as inhibition of cell viability
# Assay type: functional, cell-based
Parameter IC50: see the listing below.

{"SMILES TEXT": "Oc1ccc(NCc2cc(Cl)ccc2OCc2ccc(Cl)cc2)cc1", "SYSTEM TESTED": "MDA-MB-468", "IC50": "18.8 µM"}
{"SMILES TEXT": "NS(=O)(=O)c1ccc(NCc2cc(Cl)ccc2OCc2ccccc2)cc1", "SYSTEM TESTED": "MDA-MB-468", "IC50": "28.3 µM"}

Now turn to the next compound.
Return reported IC50; argument: OCCNCc1cc(Br)ccc1OCc1ccc(Cl)cc1
23 µM

* * *

# Test system: MDA-MB-468
# ASSAY REMARKS: Cytotoxicity against human MDA-MB-468 cells assessed as inhibition of cell viability at 10 uM
# Assay type: functional
Parameter inhibition at 10 µM: see the listing below.
Give the value, in units of %, as a plain number.

{"COMPOUND": "Clc1ccc(OCc2ccccc2Cl)c(CNCc2ccccc2)c1", "PROPERTY": "inhibition at 10 µM", "NUMERIC READOUT": 10.7}
{"COMPOUND": "CC(O)CNCc1c(OCc2ccccc2Cl)ccc2ccccc12 (centres undefined)", "PROPERTY": "inhibition at 10 µM", "NUMERIC READOUT": 14.9}
{"COMPOUND": "Clc1ccc(COc2ccccc2CNCc2ccccn2)cc1", "PROPERTY": "inhibition at 10 µM", "NUMERIC READOUT": 18.9}

Now turn to the next compound.
Return reported inhibition at 10 µM; argument: Fc1ccc(COc2ccc(Cl)cc2CNCC2CCCO2)cc1 (centres undefined)
27.5
